Data origin: patent US20120172293A1

I'd be grateful if you could share measured IC50 Ratio (IC50 compound/IC50 PYY(3-36)) for these entries.
# System tested: human Y2 receptor (human) (UniProt P49146)
# Sequence (P49146 whole entry): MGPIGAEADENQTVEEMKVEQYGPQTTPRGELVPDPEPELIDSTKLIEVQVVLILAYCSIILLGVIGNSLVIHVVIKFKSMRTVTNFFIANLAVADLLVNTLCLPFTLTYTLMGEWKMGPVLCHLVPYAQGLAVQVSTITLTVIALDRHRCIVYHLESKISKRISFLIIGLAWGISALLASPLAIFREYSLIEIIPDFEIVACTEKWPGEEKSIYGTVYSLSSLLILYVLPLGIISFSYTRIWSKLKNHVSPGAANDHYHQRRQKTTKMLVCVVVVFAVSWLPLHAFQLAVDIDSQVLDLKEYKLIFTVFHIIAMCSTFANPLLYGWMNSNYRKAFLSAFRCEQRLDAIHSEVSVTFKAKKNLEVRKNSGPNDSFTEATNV
# Method description: RBA: displacement of [125I]-PYY from hY2R/CHO membranes
Non-standard residues stand in square brackets, D forms with d. *: point of attachment. 4Pal = N[C@@H](Cc1ccncc1)C(=O)O; Cha = N[C@@H](CC1CCCCC1)C(=O)O; Isonicotinoyl = O=C(c1ccncc1)*; Nle = CCCC[C@H](N)C(=O)O; Aib = CC(C)(N)C(=O)O
# respond with the number and nothing more

Record summary for Ac-FS[dP]R[4Pal][Cha][Aib]NK[Aib]TRQR[Cha]-NH2 (SMILES CC(=O)N[C@@H](Cc1ccccc1)C(=O)N[C@@H](CO)C(=O)N1CCC[C@@H]1C(=O)N[C@@H](CCCNC(=N)N)C(=O)N[C@@H](Cc1ccncc1)C(=O)N[C@@H](CC1CCCCC1)C(=O)NC(C)(C)C(=O)N[C@@H](CC(N)=O)C(=O)N[C@@H](CCCCN)C(=O)NC(C)(C)C(=O)N[C@H](C(=O)N[C@@H](CCCNC(=N)N)C(=O)N[C@@H](CCC(N)=O)C(=O)N[C@@H](CCCNC(=N)N)C(=O)N[C@@H](CC1CCCCC1)C(N)=O)[C@@H](C)O) [Ac-[Phe22, D-Pro24, Pya(4)26, Cha27,36, Aib28,31, Lys30]-PYY(22-36)] : reported IC50 Ratio (IC50 compound/IC50 PYY(3-36)) = 1.2

Recorded IC50 Ratio (IC50 compound/IC50 PYY(3-36)) (binder Isonicotinoyl-E[dP][Nle][4Pal][Cha][Aib]NK[Aib]TRQR[Cha]-NH2 (SMILES CCCC[C@H](NC(=O)[C@H]1CCCN1C(=O)[C@H](CCC(=O)O)NC(=O)c1ccncc1)C(=O)N[C@@H](Cc1ccncc1)C(=O)N[C@@H](CC1CCCCC1)C(=O)NC(C)(C)C(=O)N[C@@H](CC(N)=O)C(=O)N[C@@H](CCCCN)C(=O)NC(C)(C)C(=O)N[C@H](C(=O)N[C@@H](CCCNC(=N)N)C(=O)N[C@@H](CCC(N)=O)C(=O)N[C@@H](CCCNC(=N)N)C(=O)N[C@@H](CC1CCCCC1)C(N)=O)[C@@H](C)O) [4-Pyridinecarbonyl-[Glu23, D-Pro24, Nle25, Pya(4)26, Cha27,36, Aib28,31, Lys30]-PYY(23-36)] ): 8.1
